System: Hs578T complex spheroid growth, percent test/control
Assay: Anticancer human tumor Hs578T cell line growth inhibition [AhR];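 further: luminescent viability signal as a proxy for spheroid growth; spheroids exposed to agents for one week after three days of growth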
Details: second compound 1 µM; first compound 3.16 µM; stronger effect = lower value
reported-property: viability, T/C (%)
Field: numeric (%). Do not append units.

Solved entries (count: 6):
| compound | uom | readout-value |
| --- | --- | --- |
| Nc1ccccc1NC(=O)c1ccc(CNC(=O)OCc2cccnc2)cc1 + Cc1ccccc1N=Nc1ccc(NC(=O)c2ccnn2C)c(C)c1 | % | 17.6 |
| NS(=O)(=O)OCC1CC(n2ccc3c(NC4CCc5ccccc54)ncnc32)CC1O (stereo not given) + Cc1ccccc1N=Nc1ccc(NC(=O)c2ccnn2C)c(C)c1 | % | 35.3 |
| CC1COCCN1c1cc(C2(S(C)(=N)=O)CC2)nc(-c2ccnc3[nH]ccc23)n1 (stereo not given) + Cc1cncc(-c2nc(NCCc3c[nH]c4ccccc34)c3ncn(C(C)C)c3n2)c1 | % | 98.2 |
| Nc1ccccc1NC(=O)c1ccc(CNC(=O)OCc2cccnc2)cc1 + Cc1cncc(-c2nc(NCCc3c[nH]c4ccccc34)c3ncn(C(C)C)c3n2)c1 | % | 25.1 |
| O=C(C=Cc1cccc(S(=O)(=O)Nc2ccccc2)c1)NO + Cc1cncc(-c2nc(NCCc3c[nH]c4ccccc34)c3ncn(C(C)C)c3n2)c1 | % | 39.9 |
| CC1(C)CCC(CN2CCN(c3ccc(C(=O)NS(=O)(=O)c4ccc(NCC5CCOCC5)c([N+](=O)[O-])c4)c(Oc4cnc5[nH]ccc5c4)c3)CC2)=C(c2ccc(Cl)cc2)C1 + CC(CO)NC(=O)c1cc(-c2ccc(Cl)cc2)nn(-c2cnn(C)c2)c1=O | % | 109 |

# next compound below
Given the entry COc1cccc2c1C(=O)c1c(O)c3c(c(O)c1C2=O)CC(O)(C(=O)CO)CC3OC1CC(N)C(O)C(C)O1 (stereo not given) + CC(CO)NC(=O)c1cc(-c2ccc(Cl)cc2)nn(-c2cnn(C)c2)c1=O , what viability, T/C was observed with Hs578T complex spheroid growth, percent test/control?
3.26

Recorded values, source PubChem BioAssay AID1919010.
